assay: Metabolic stability in human liver microsomes assessed as half-life at 1 uM incubated upto 60 mins in presence of NADPH by LC-MS/MS analysis; type: ADME, Microsome
endpoint label: half-life at 1 µM (min)
Numeric answer only, unit min assumed.

Identify measured half-life at 1 µM associated with CCN(CC)C/C=C/C(=O)Nc1cc2c(Nc3ccc(F)c(Cl)c3)ncnc2cc1OCc1cn(CCCCCCCC(=O)N[C@H](C(=O)N2C[C@H](O)C[C@H]2C(=O)N[C@H](C)c2ccc(-c3scnc3C)cc2)C(C)(C)C)nn1
16.5

----------
assay: Metabolic stability in dog liver microsomes assessed as elimination rate constant at 1 uM incubated upto 60 mins in presence of NADPH by LC-MS/MS analysis; assay type: ADME, Canis lupus familiaris, Microsome
endpoint label: k el at 1 h, 1 µM (s⁻¹)
Provide only the numeric value, understood in s⁻¹.

Give k el at 1 h, 1 µM for the following compound: CCN(CC)C/C=C/C(=O)Nc1cc2c(Nc3ccc(F)c(Cl)c3)ncnc2cc1OCc1cn(CCCCCCCC(=O)N[C@H](C(=O)N2C[C@H](O)C[C@H]2C(=O)N[C@H](C)c2ccc(-c3scnc3C)cc2)C(C)(C)C)nn1
0.00015

----------
experiment: Metabolic stability in monkey liver microsomes assessed as intrinsic clearance at 1 uM incubated upto 60 mins in presence of NADPH by LC-MS/MS analysis; type: ADME, Macaca mulatta, Microsome; conditions: rhesus monkey, read-out: CLH
endpoint label: microsomal CLint at 1 µM (µL/min/mg)
Answer format: numeric, µL/min/mg implied, no suffix.

Hello, please tell me recorded microsomal CLint at 1 µM for this one: CCN(CC)C/C=C/C(=O)Nc1cc2c(Nc3ccc(F)c(Cl)c3)ncnc2cc1OCc1cn(CCCCCCCC(=O)N[C@H](C(=O)N2C[C@H](O)C[C@H]2C(=O)N[C@H](C)c2ccc(-c3scnc3C)cc2)C(C)(C)C)nn1
36.6

----------
test: Metabolic stability in monkey liver microsomes assessed as half-life at 1 uM incubated upto 60 mins in presence of NADPH by LC-MS/MS analysis; type: ADME, Macaca mulatta, Microsome; conditions: rhesus monkey
endpoint label: half-life at 1 µM (min)
# value in min; strip the unit string

Indicate the recorded half-life at 1 µM value for this compound: CCN(CC)C/C=C/C(=O)Nc1cc2c(Nc3ccc(F)c(Cl)c3)ncnc2cc1OCc1cn(CCCCCCCC(=O)N[C@H](C(=O)N2C[C@H](O)C[C@H]2C(=O)N[C@H](C)c2ccc(-c3scnc3C)cc2)C(C)(C)C)nn1
37.9

----------
experiment: Metabolic stability in rat liver microsomes assessed as half-life at 1 uM incubated upto 60 mins in presence of NADPH by LC-MS/MS analysis; format: ADME, Microsome
endpoint label: half-life at 1 µM (h)
Write the answer as a number in h, unit excluded.

Note down half-life at 1 µM recorded for CCN(CC)C/C=C/C(=O)Nc1cc2c(Nc3ccc(F)c(Cl)c3)ncnc2cc1OCc1cn(CCCCCCCC(=O)N[C@H](C(=O)N2C[C@H](O)C[C@H]2C(=O)N[C@H](C)c2ccc(-c3scnc3C)cc2)C(C)(C)C)nn1
3.12

----------
Catalogue of IC50 values
test system: A549; assay: Antiproliferative activity against human A549 cells harboring EGFR wild type assessed as inhibition of cell growth incubated for 48 to 72 hrs by CCK-8 assay; assay type: functional, cell-based

# example entries with known answers
[[record]]
molecule = "Cc1ncsc1-c1ccc(CNC(=O)[C@@H]2C[C@@H](O)CN2C(=O)[C@@H](NC(=O)CCCCCCCCCCn2cc(COc3cc4ncnc(Nc5ccc(F)c(Cl)c5)c4cc3NC(=O)/C=C/CN3CCCCC3)nn2)C(C)(C)C)cc1"
endpoint_label = "IC50"
result = "> 20 µM"

[[record]]
molecule = "C=CC(=O)Nc1cc(Nc2nccc(-c3cn(C)c4ccccc34)n2)c(OC)cc1N(C)CCN(C)C [OSIMERTINIB]"
endpoint_label = "IC50"
result = "1.23 µM"

[[record]]
molecule = "Cc1ncsc1-c1ccc(CNC(=O)[C@@H]2C[C@@H](O)CN2C(=O)[C@@H](NC(=O)CCCCCCCn2cc(CCCCCOc3cc4ncnc(Nc5ccc(F)c(Cl)c5)c4cc3NC(=O)/C=C/CN3CCCCC3)nn2)C(C)(C)C)cc1"
endpoint_label = "IC50"
result = "> 20 µM"

[[record]]
molecule = "Cc1ncsc1-c1ccc(CNC(=O)[C@@H]2C[C@@H](O)CN2C(=O)[C@@H](NC(=O)CCCCn2cc(COCCOCCOCCOc3cc4ncnc(Nc5ccc(F)c(Cl)c5)c4cc3NC(=O)/C=C/CN3CCCCC3)nn2)C(C)(C)C)cc1"
endpoint_label = "IC50"
result = "> 20 µM"


Field: next molecule
Annotate the molecule CCN(CC)C/C=C/C(=O)Nc1cc2c(Nc3ccc(F)c(Cl)c3)ncnc2cc1OCc1cn(CCCCCCCC(=O)N[C@H](C(=O)N2C[C@H](O)C[C@H]2C(=O)N[C@H](C)c2ccc(-c3scnc3C)cc2)C(C)(C)C)nn1 with its measured IC50.
> 20 µM
